All values here come from ChEMBL document CHEMBL4184146.

biological target: Protein farnesyltransferase (Homo sapiens, UniProt P49354+P49356); test: Inhibition of FTase (unknown origin) expressed in mouse NIH-3T3 cells transfected with human H-Ras assessed as decrease in farnesylation of H-Ras after 24 hrs by chemoluminescence assay; assay type: cell-based
pIC50: −log10 of the molar value.
Measurement label: pIC50

structure_notation=COC(=O)[C@H](CC(C)C)NC(=O)c1ccc(NC[C@@H](N)CS)cc1-c1ccccc1 measurement_label=pIC50 result="< 4.52"

----------
target: Protein farnesyltransferase (Homo sapiens, UniProt P49354+P49356); assay: Inhibition of FTase (unknown origin) using H-ras as substrate; format: protein-complex assay
pIC50: −log10 of the molar value.
Measurement label: pIC50

structure_notation=O=C(c1cn(Cc2cncn2Cc2ccc(Br)cc2)cc1-c1cccc2ccccc12)N1CCOCC1 measurement_label=pIC50 quantitative_result=9.10
